Target: Cytochrome P450 2D6 (Homo sapiens)
Sequence (P10635 whole entry): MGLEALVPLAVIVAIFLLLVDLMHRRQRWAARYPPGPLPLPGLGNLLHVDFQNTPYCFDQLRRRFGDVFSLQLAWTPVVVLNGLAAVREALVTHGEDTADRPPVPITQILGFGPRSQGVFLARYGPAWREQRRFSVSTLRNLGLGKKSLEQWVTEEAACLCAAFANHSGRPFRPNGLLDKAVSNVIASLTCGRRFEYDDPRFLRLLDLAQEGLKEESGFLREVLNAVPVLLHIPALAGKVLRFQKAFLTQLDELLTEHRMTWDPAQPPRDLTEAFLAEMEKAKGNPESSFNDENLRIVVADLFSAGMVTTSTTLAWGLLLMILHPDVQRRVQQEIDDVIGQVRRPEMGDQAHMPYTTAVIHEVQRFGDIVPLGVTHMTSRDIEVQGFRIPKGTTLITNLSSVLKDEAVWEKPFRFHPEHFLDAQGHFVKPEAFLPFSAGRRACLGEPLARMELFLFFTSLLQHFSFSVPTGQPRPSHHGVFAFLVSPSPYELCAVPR
Assay: Inhibition of human recombinant CYP2D6 assessed as reduction in metabolite formation using AMMC as substrate incubated for 20 mins by fluorescence assay
pIC50: −log10 of the molar value.
property-label: pIC50

Query: Write down pIC50 measured for item `CNC(=O)c1ccc(-c2c(C)nc3c(OCc4ccc(-c5ccc(F)cc5)cc4F)cccn23)cn1.Cl`
Result: < 5.00

###

Target: Cytochrome P450 2C9 (Homo sapiens, UniProt P11712)
Sequence (P11712 whole entry): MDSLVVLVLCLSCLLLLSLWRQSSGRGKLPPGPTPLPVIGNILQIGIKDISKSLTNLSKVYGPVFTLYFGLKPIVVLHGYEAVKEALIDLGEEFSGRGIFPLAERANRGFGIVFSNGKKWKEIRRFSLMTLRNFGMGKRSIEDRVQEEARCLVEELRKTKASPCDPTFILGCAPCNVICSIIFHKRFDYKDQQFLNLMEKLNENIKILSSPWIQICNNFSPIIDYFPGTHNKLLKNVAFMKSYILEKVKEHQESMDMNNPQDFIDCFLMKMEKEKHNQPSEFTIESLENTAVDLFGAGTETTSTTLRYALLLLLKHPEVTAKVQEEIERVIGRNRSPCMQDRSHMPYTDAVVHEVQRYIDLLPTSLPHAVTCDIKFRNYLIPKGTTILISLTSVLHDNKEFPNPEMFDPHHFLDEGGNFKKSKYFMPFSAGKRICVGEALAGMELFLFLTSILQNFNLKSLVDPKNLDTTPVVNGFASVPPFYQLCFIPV
Experiment: Inhibition of human recombinant CYP2C9 assessed as reduction in metabolite formation using MFC as substrate incubated for 30 mins by fluorescence assay
property-label: IC50

Query: Quote IC50 reported for `CNC(=O)c1ccc(-c2c(C)nc3c(OCc4ccc(-c5ccc(F)cc5)cc4F)cccn23)cn1.Cl` please.
Result: > 10 µM

###

The entries below come with measured CLint scaled at 0.2 µM values attached.
Experiment: Intrinsic clearance in rat liver microsomes at 0.2 uM incubated upto 45 mins by LC/MS-MS analysis
Format: ADME, Microsome
Conditions: liver microsomes, read-out: CLH
Give the number; mL/min/kg is assumed, so skip it.

Some entries whose results are on file:
CCNC(=O)c1ccc(-c2c(C)nc3c(OCc4ccc(-c5cccc(F)c5)cc4)cccn23)cn1 :: 307
CNC(=O)c1ccc(-c2c(C)nc3c(OCc4ccc(-c5ccc(F)cc5)cc4)cccn23)cn1.Cl :: 147
CCN1Cc2cc(-c3c(C)nc4c(OCc5ccc(-c6ccc(F)cc6)cc5)cccn34)ccc2C1=O :: 345

Query: State its CLint scaled at 0.2 µM for this compound: `CNC(=O)c1ccc(-c2c(C)nc3c(OCc4ccc(-c5ccc(F)cc5)cc4F)cccn23)cn1.Cl`
Result: 115

Query: Report CLint scaled at 0.2 µM, nothing else, for this compound: `CCNC(=O)c1ccc(-c2c(C)nc3c(OCc4ccc(-c5ccccc5C(F)(F)F)cc4)cccn23)cn1`
Result: 790

Query: Tell us which CLint scaled at 0.2 µM value is on record for `CCNC(=O)c1ccc(-c2c(C)nc3c(OCc4ccc(-c5ccccc5)cc4)cccn23)cn1.Cl`
Result: 835

Query: Specify measured CLint scaled at 0.2 µM for `Cc1nc2c(OCc3ccc(-c4ccc(F)cc4)cc3)cccn2c1-c1ccc2c(=O)n(C)oc2c1.Cl` .
Result: 167

###

Target: Gamma-secretase
Assay: Inhibition of gamma-secretase in human SK-N-BE cells assessed as decrease in amyloid beta 42 production treated for 6 hrs by ELISA
Lab note: cut-off is 80 nM. Strictly less in IC50 is 1.0. Exactly 80 nM or more is 0.0.

CCn1sc2cc(-c3c(C)nc4c(OCc5ccc(-c6ccc(F)cc6)cc5)cccn34)ccc2c1=O :: 0.0
CCNC(=O)c1ccc(-c2c(C)nc3c(OCc4ccc(-c5ccccc5F)cc4)cccn23)cn1 :: 0.0
Cc1nc2c(OCc3ccc(-c4ccc(F)cc4)cc3)cccn2c1-c1ccc2c(=O)n(C)oc2c1.Cl :: 1.0
CCNC(=O)c1ccc(-c2c(C)nc3c(OCc4ccc(-c5ccc(F)cc5)cc4)cccn23)cn1 :: 1.0
CCN1Cc2cc(-c3c(C)nc4c(OCc5ccc(-c6ccc(F)cc6)cc5)cccn34)ccc2C1=O :: 0.0

Query: Given `CCn1oc2cc(-c3c(C)nc4c(OCc5ccc(-c6ccc(F)cc6)cc5)cccn34)ccc2c1=O` , is recorded IC50 strictly lower than 80 nM?
Result: 0.0
